target: CopY (S. pneumoniae) (Streptococcus pneumoniae (TIGR4?)); experiment: BLI; conditions: BLI: 50 mM Tris pH 7.4, 150 mM NaCl, 4% glycerol, 1 mM TCEP, 0.1% BSA, 26 C; EMSA: Tris-borate without EDTA, 4 C, 5% PAGE
VALUE KIND: pKd
// pKd is dimensionless: -log10 of concentration (M)

Give its pKd value. Item: 16 bp (16 of 21 repeat bases kept: ATTGACAAATGTAGAT) 6.44
